Data provenance is the supplement of paper PMC13207355.

Catalogue of surviving fraction values
# System: E34 (patient-derived glioblastoma stem cells of proneural subtype)
# PROTOCOL_NOTES: surviving fraction (nuclei count normalised to DMSO); higher = more cells surviving (less toxic)
# CONDITION_PARAMETERS: 3000 nM; exposure time: 72 h
Counter-ions that a name gives are not always drawn.
Just the number.

Known surviving fraction results, listed for orientation:
>>> observed_result("Nc1ccn([C@@H]2O[C@H](CO)[C@@H](O)[C@@H]2O)c(=O)n1")
0.466
>>> observed_result("N=c1ccn2c(n1)O[C@H]1[C@H](O)[C@@H](CO)O[C@H]12 [Ancitabine hydrochloride]")
0.593
>>> observed_result("Nc1nc(=O)c2nc(CNc3ccc(C(=O)N[C@@H](CCC(=O)O)C(=O)O)cc3)cnc2[nH]1")
0.925

Then this compound:
Asked: Dear colleague, please send me the reported surviving fraction for "CCn1c(-c2nonc2N)nc2cnc(Oc3cccc(NC(=O)c4ccc(OCCN5CCOCC5)cc4)c3)cc21" when you can.
Given back: 0.746

* * *

Catalogue of phenotypic distance values
# System: E28 (patient-derived glioblastoma stem cells of classical subtype)
# PROTOCOL_NOTES: phenotypic distance (Euclidean, principal components) from DMSO controls (arbitrary units); higher = stronger morphological change
# CONDITION_PARAMETERS: 111.1 nM; exposure time: 72 h
Structures can show the parent of a compound that is named as a salt.
Just the number.

Known phenotypic distance results, listed for orientation:
>>> observed_result("CN(C)CCN(Cc1ccc(Cl)cc1)c1ccccn1 [Chloropyramine hydrochloride]")
0.796
>>> observed_result("COC(=O)Nc1nc2cc(C(=O)c3ccc(F)cc3)ccc2[nH]1 [Flubendazol]")
1.08
>>> observed_result("O=C(/C=C\\n1cnc(-c2cc(C(F)(F)F)cc(C(F)(F)F)c2)n1)NNc1cnccn1 [Selinexor]")
2.65
>>> observed_result("C#C[C@]1(O)CC[C@H]2[C@@H]3CCC4=CCCC[C@@H]4[C@H]3CC[C@@]21C [Lynestrenol]")
0.306
>>> observed_result("C[C@H](Cc1cc2c(c(C(N)=O)c1)N(CCCO)CC2)NCCOc1ccccc1OCC(F)(F)F [Silodosin]")
0.795

Asked: Dear colleague, please send me the reported phenotypic distance for N=C(N)NCc1cccc(I)c1 [Iobenguane sulfate] when you can.
Given back: 0.721

Asked: Dear colleague, please send me the reported phenotypic distance for COc1cccc2c1C(=O)c1c(O)c3c(c(O)c1C2=O)C[C@@](O)(C(C)=O)C[C@@H]3O[C@H]1C[C@H](N)[C@H](O)[C@H](C)O1 [Daunorubicin hydrochloride] when you can.
Given back: 3.09

Asked: Dear colleague, please send me the reported phenotypic distance for CCCCCCNC(=O)n1cc(F)c(=O)[nH]c1=O [Carmofur] when you can.
Given back: 0.901

Asked: Dear colleague, please send me the reported phenotypic distance for COc1cc(OC)c(C(=O)CCCN2CCCC2)c(OC)c1 [Buflomedil hydrochloride] when you can.
Given back: 0.817

Asked: Dear colleague, please send me the reported phenotypic distance for CN1C(=O)[C@@]23C[C@]4([C@]56C[C@@]78SS[C@@](CO)(C(=O)N7[C@H]5Nc5ccccc56)N(C)C8=O)c5ccccc5N[C@@H]4N2C(=O)[C@]1(CO)SS3 [Chaetocin] when you can.
Given back: 5.55

Asked: Dear colleague, please send me the reported phenotypic distance for Nc1nc(Cl)nc2c1ncn2[C@@H]1O[C@H](CO)[C@@H](O)[C@@H]1F [Clofarabine] when you can.
Given back: 2.31

Asked: Dear colleague, please send me the reported phenotypic distance for CCc1c2c(nc3ccc(OC(=O)N4CCC(N5CCCCC5)CC4)cc13)-c1cc3c(c(=O)n1C2)COC(=O)[C@]3(O)CC [Irinotecan] when you can.
Given back: 0.966

Asked: Dear colleague, please send me the reported phenotypic distance for Nc1nc2n[nH]nc2c(=O)[nH]1 [Azaguanine-8] when you can.
Given back: 0.848

Asked: Dear colleague, please send me the reported phenotypic distance for NC1CCN(c2nc3c(cc2F)c(=O)c(C(=O)O)cn3-c2ccc(F)cc2F)C1 (configuration not stated) [Tosufloxacin hydrochloride] when you can.
Given back: 0.684

Asked: Dear colleague, please send me the reported phenotypic distance for COc1cc(N)c(Cl)cc1C(=O)NC1CCN(CCCOc2ccc(F)cc2)CC1OC (configuration not stated) [Cisapride] when you can.
Given back: 0.547

Asked: Dear colleague, please send me the reported phenotypic distance for NC(=O)c1cccc2cn(-c3ccc([C@@H]4CCCNC4)cc3)nc12 [Niraparib] when you can.
Given back: 0.861

Asked: Dear colleague, please send me the reported phenotypic distance for COc1cc2c(cc1O)CC[C@@H]1[C@@H]2CC[C@]2(C)[C@@H](O)CC[C@@H]12 [2-methoxyestradiol] when you can.
Given back: 1.27

* * *

Catalogue of surviving fraction values
# System: E31 (patient-derived glioblastoma stem cells of proneural subtype)
# PROTOCOL_NOTES: surviving fraction (nuclei count normalised to DMSO); higher = more cells surviving (less toxic)
# CONDITION_PARAMETERS: 1000 nM; exposure time: 72 h
Structures can show the parent of a compound that is named as a salt.

Known surviving fraction results, listed for orientation:
>>> observed_result("CC(C)C[C@H](NC(=O)CNC(=O)c1cc(Cl)ccc1Cl)B(O)O")
0.0402
>>> observed_result("C[C@@H](Oc1cc(-c2cnn(C3CCNCC3)c2)cnc1N)c1c(Cl)ccc(F)c1Cl")
0.96
>>> observed_result("Nc1nc(=O)c2nc(CNc3ccc(C(=O)N[C@@H](CCC(=O)O)C(=O)O)cc3)cnc2[nH]1")
1.14
>>> observed_result("COc1cc2c(c(OC)c1OC)-c1ccc(OC)c(=O)cc1[C@@H](NC(C)=O)CC2")
0.0519
>>> observed_result("CC(C)C[C@@H](C(=O)N[C@H](C(=O)OC1CCCC1)c1ccccc1)[C@H](O)C(=O)NO")
0.796
>>> observed_result("CN1C(=O)CC(c2ccccc2)C1=O (stereo not drawn) [Phensuximide]")
1.13

Asked: Dear colleague, please send me the reported surviving fraction for O=C(Nc1ccc([N+](=O)[O-])cc1Cl)c1cc(Cl)ccc1O [Niclosamide] when you can.
Given back: 0.0502

Asked: Dear colleague, please send me the reported surviving fraction for CCC(C)(C)c1ccc(CC(C)CN2C[C@@H](C)O[C@@H](C)C2)cc1 (stereo partly drawn) [Amorolfine hydrochloride] when you can.
Given back: 0.996

* * *

Catalogue of phenotypic distance values
# Test system: E21 (patient-derived glioblastoma stem cells of mesenchymal subtype)
# PROTOCOL_NOTES: phenotypic distance (Euclidean, principal components) from DMSO controls (arbitrary units); higher = stronger morphological change
# CONDITION_PARAMETERS: 111.1 nM; exposure time: 72 h
Just the number.

Known phenotypic distance results, listed for orientation:
>>> observed_result("Clc1ccc(COC(Cn2ccnc2)c2ccc(Cl)cc2Cl)c(Cl)c1 (centres undefined) [Miconazole]")
0.637
>>> observed_result("Oc1ccc(OCc2ccccc2)cc1 [Monobenzone]")
0.324
>>> observed_result("CCN1CCN(C(=O)Cc2ccc(Nc3ncc(F)c(Nc4ccc(C(=O)Nc5ccccc5Cl)cc4)n3)cc2)CC1 [Aurora-A Inhibitor I]")
0.686

Then this compound:
Asked: // fetch phenotypic distance; item: C#C[C@]1(O)CC[C@H]2[C@@H]3CCc4cc(OC5CCCC5)ccc4[C@H]3CC[C@@]21C [Quinestrol] ; system: E21
Given back: 0.53

* * *

# Test system: FT3469 (normal neural stem cell line)
# PROTOCOL_NOTES: surviving fraction (nuclei count normalised to DMSO); higher = more cells surviving (less toxic)
# CONDITION_PARAMETERS: 12.3 nM; exposure time: 72 h
Where a name gives a salt, the structure may show the parent alone.
Catalogue of surviving fraction values

>>> observed_result("CCCCCCCCCCCCCCCC[N+](C)(C)CCN(Cc1ccc(OC)cc1)c1ncccn1 [Thonzonium bromide]")
0.934
>>> observed_result("CN(C)C(=O)Oc1ccc[n+](C)c1 [Pyridostigmine iodide]")
1.12
>>> observed_result("COc1cc([C@@H]2c3cc4c(cc3[C@@H](O[C@@H]3O[C@@H]5CO[C@@H](c6cccs6)O[C@H]5[C@H](O)[C@H]3O)[C@H]3COC(=O)[C@H]23)OCO4)cc(OC)c1O [Teniposide]")
0.643
>>> observed_result("COc1cc2c(cc1O)CC[C@@H]1[C@@H]2CC[C@]2(C)[C@@H](O)CC[C@@H]12")
0.981
>>> observed_result("CCC[C@@H]1C[C@@H](C(=O)N[C@@H]([C@H]2O[C@H](SC)[C@H](O)[C@@H](O)[C@H]2O)[C@@H](C)O)N(C)C1 [Lincomycin hydrochloride]")
0.951

Asked: Dear colleague, please send me the reported surviving fraction for CC(C)C[C@H]1C(=O)N2CCC[C@H]2[C@]2(O)O[C@](NC(=O)[C@@H]3C=C4c5cccc6[nH]c(Br)c(c56)C[C@H]4N(C)C3)(C(C)C)C(=O)N12 [Bromocryptine mesylate] when you can.
Given back: 0.909

Asked: Dear colleague, please send me the reported surviving fraction for N=c1ccn2c(n1)O[C@H]1[C@H](O)[C@@H](CO)O[C@H]12 [Ancitabine hydrochloride] when you can.
Given back: 0.86
